- Tested on: 2019 Novel Coronavirus, Isolate USA-WA1/2020 (SARS-CoV-2)
- assay_explanation: In vitro efficacy in Calu-3 lung cells, immunostaining assay
- Format: cell-based
- reported_conditions: Calu-3 lung cells, MOI 0.001 TCID50/cell, immunostaining at 48±6 hours post inoculation; preliminary results; read-out: EC50
readout_kind: EC50 (nM)
Numeric answer only, unit nM assumed.

Log: 2019 Novel Coronavirus, Isolate USA-WA1/2020 (SARS-CoV-2), compound CC(C)C[C@H](NC(=O)[C@H](Cc1ccccc1)NC(=O)c1cnccn1)B(O)O , EC50 = 6.9

The reported measurements were obtained from patent US20240115588A1.
